system: CCRIS mutagenicity, Ames/micronucleus/aberration tests; assay: CCRIS mutagenicity studies; settings: Test System: AMES SALMONELLA TYPHIMURIUM; Strain/Indicator: TA98; Metabolic Activation: RAT LIVER S-9, AROCLOR 1254; Method: STANDARD PLATE
The source made the active and inactive calls. How the calls were made is not given here.
Outcomes you can answer with include only these: TRUE for active, FALSE for inactive

Example entries and their recorded answers appear below.
O=C1OC(O)C(C(Br)Br)=C1Br (stereo not drawn): FALSE
Cc1cc(C)c(C)c(C)c1: FALSE
C[Si](C)(C)O[Si](C)(C)C: FALSE
CCO[Si](C)(OCC)OCC: FALSE
CC[n+]1c(-c2ccccc2)c2cc(N)ccc2c2ccc(N)cc21: TRUE
C=CCN=C=S: TRUE

# lookup: test call for CC(C)=CCCC(C)CC=O (stereo not drawn) FALSE

# lookup: test call for `COC(=O)c1ccc(C(=O)OC)cc1` FALSE

====

Tested on: CCRIS mutagenicity, Ames/micronucleus/aberration tests
Experiment: CCRIS mutagenicity studies
Settings: Test System: AMES SALMONELLA TYPHIMURIUM; Strain/Indicator: TA98; Metabolic Activation: RAT, LIVER, S-9, AROCLOR 1254 (10%); Method: STANDARD PLATE
Source text: The CCRIS database contains chemical records with carcinogenicity, mutagenicity, tumor promotion, and tumor inhibition test results. It was developed by the National Cancer Institute (NCI). Data are derived from studies cited in primary journals, current awareness tools, NCI reports, and other sources. Test results have been reviewed by experts in carcinogenesis and mutagenesis. CCRIS provides historical information from the years 1985 - 2011. It is no longer updated. […]
The source made the active and inactive calls. The rule behind the calls is not given here.
Outcomes you can answer with include only these: active, inactive

Example entries and their recorded answers appear below.
Cc1ncc[nH]1: inactive
N#CC(C#N)=C(C#N)C#N: inactive

# lookup: test call for `c1ccc2c(c1)ccc1cc3ccc4ccncc4c3cc12` active

# lookup: test call for `O=S1(=O)c2cccc3ccc4c5ccccc5cc1c4c23` active

# lookup: test call for `C=C[Si](C)(Cl)Cl` inactive

====

tested on: CCRIS mutagenicity, Ames/micronucleus/aberration tests; experiment: CCRIS mutagenicity studies; settings: Test System: AMES SALMONELLA TYPHIMURIUM; Strain/Indicator: TA100; Metabolic Activation: RAT, LIVER, S-9, AROCLOR 1254; Method: STANDARD PLATE
Calls of active or inactive are those of the source. No rule for the calls is given here.
Outcomes you can answer with include only these: true = active, false = inactive

Example entries and their recorded answers appear below.
Oc1ccc2ccc3c4c(cc5ccc1c2c53)[C@@H](O)[C@H](O)C=C4: true
CCOC(=O)c1[nH]c2ccccc2c1N=Cc1cc(OC)c(OC)c(OC)c1: false

# lookup: test call for `COc1c(C(C)(C)C)cc([N+](=O)[O-])c(C)c1[N+](=O)[O-]` true

# lookup: test call for `CC(C)c1cc(N)c([N+](=O)[O-])cc1N` false

# lookup: test call for `CN(C)N` false

# lookup: test call for `S=c1nc[nH]c2nc[nH]c12` false

====

test system: CCRIS mutagenicity, Ames/micronucleus/aberration tests; test: CCRIS mutagenicity studies; settings: Test System: AMES SALMONELLA TYPHIMURIUM; Strain/Indicator: TA100; Metabolic Activation: RAT, LIVER, S-9, AROCLOR 1254; Method: STANDARD PLATE
The source made the active and inactive calls. No rule for the calls is given here.
observation.type: mutagenic call

Guide cases for mutagenic call, answers given:
ClC(Cl)Cl: active; positive
c1ccc2c(c1)ccc1cc3ccc4ccncc4c3cc12: active; positive
COc1cc2c(c3oc(=O)c4c(c13)CC[C@H]4O)[C@@H]1C=CO[C@@H]1O2: active; positive
CC(C)(CO)[C@@H](O)C(=O)NCCCO: inactive; negative
O=C(n1ccnc1)n1ccnc1: inactive; negative

Supply reported mutagenic call belonging to this compound: `Nc1cc2nc3ccccc3nc2cc1O` active; positive

Supply reported mutagenic call belonging to this compound: `O=C1C(=O)c2cccc3cccc1c23` inactive; negative

Supply reported mutagenic call belonging to this compound: `CC/C=C\C/C=C\C/C=C\CCCCCCCC(=O)O` inactive; negative
